Recorded values, source ChEMBL document CHEMBL3259737.

- protocol-summary: physchem
- reported-conditions: PBS buffer, pH 7.4
value-kind: solubility kinetic (µM)
Number in µM, nothing else.

solubility kinetic lookup needed for "COc1cc(/C=C/C(=O)NCCn2c(C)c(CN3CCCCC3)c3ccccc32)cc(OC)c1OC" , thanks.
75

solubility kinetic lookup needed for "COc1cc(/C=C/C(=O)NCCn2c(CNC3CCN(C)CC3)cc3ccccc32)cc(OC)c1OC" , thanks.
180

solubility kinetic lookup needed for "COc1cc(/C=C/C(=O)NCCn2c(C)cc3ccccc32)cc(OC)c1OCCO" , thanks.
66

solubility kinetic lookup needed for "COc1cc(/C=C/C(=O)NCCc2n[nH]c3ccccc23)cc(OC)c1OC" , thanks.
152

solubility kinetic lookup needed for "Cc1cc2ccccc2n1CCNC(=O)/C=C/c1ccc(OCCO)c(OCCO)c1" , thanks.
153

solubility kinetic lookup needed for "COc1cc(/C=C/C(=O)NCCn2c(CN3CCOCC3)cc3ccccc32)cc(OC)c1OC" , thanks.
91

solubility kinetic lookup needed for "Cc1cc2ccccc2n1CCNC(=O)/C=C/c1ccc(OCCN(C)C)cc1" , thanks.
90

solubility kinetic lookup needed for "Cc1cc2ccccc2n1CCNC(=O)/C=C/c1ccc(OCCCN(C)C)cc1" , thanks.
306

solubility kinetic lookup needed for "COc1cc(/C=C/C(=O)NCCc2c(C)[nH]c3ccccc23)cc(OC)c1OC" , thanks.
43

solubility kinetic lookup needed for "COc1cc(/C=C/C(=O)NCCn2c(C)cc3ccccc32)cc(OC)c1OCCN(C)C" , thanks.
180

solubility kinetic lookup needed for "Cc1cc2ccccc2n1CCNC(=O)/C=C/c1ccc(OCCO)cc1" , thanks.
68

solubility kinetic lookup needed for "COc1cc(/C=C/C(=O)NCCn2c(C)cc3ccccc32)cc(OC)c1OC" , thanks.
45

====

- protocol-summary: Ratio of drug level in brain to plasma in C57BL/6 mouse at 5 mg/kg, ip measured after 1 to 2 hrs
value-kind: Kp

Kp lookup needed for "Cc1cc2ccccc2n1CCNC(=O)/C=C/c1ccc(OCCO)c(OCCO)c1" , thanks.
< 0.1

====

- protocol-summary: Ratio of drug level in brain to plasma in C57BL/6 mouse at 10 mg/kg, po measured after 1 to 2 hrs
value-kind: Kp

Kp lookup needed for "Cc1cc2ccccc2n1CCNC(=O)/C=C/c1ccc(OCCO)c(OCCO)c1" , thanks.
< 0.1

====

- Tested on: C6
- protocol-summary: Cytotoxicity against rat C6 cells assessed as cell viability
So I've got a bunch of compounds here, and I need their CC50 values.
Answer with the value and then the unit.

CC50 lookup needed for "COc1cc(/C=C/C(=O)NCCn2c(C)cc3ccccc32)cc(OC)c1OC" , thanks.
172 µM

CC50 lookup needed for "COc1ccc(/C=C/C(=O)NCCc2c(C)[nH]c3ccccc23)cc1OC" , thanks.
246 µM

CC50 lookup needed for "Cc1cc2ccccc2n1CCNC(=O)/C=C/c1ccc(OCCO)cc1" , thanks.
81.7 µM

CC50 lookup needed for "Cc1cc(/C=C/C(=O)NCCn2c(C)cc3ccccc32)cc(C)c1F" , thanks.
368 µM

CC50 lookup needed for "COc1cc(/C=C/C(=O)NCCn2c(C)cc3ccccc32)cc(OC)c1OCCO" , thanks.
43.3 µM

CC50 lookup needed for "Cc1cc(/C=C/C(=O)NCCc2c(C)[nH]c3ccccc23)cc(C)c1F" , thanks.
317 µM

CC50 lookup needed for "Cc1cc2ccccc2n1CCNC(=O)/C=C/c1ccc(OCCO)c(OCCO)c1" , thanks.
92.3 µM

CC50 lookup needed for "COc1cc(/C=C/C(=O)NCCc2c(C)[nH]c3ccccc23)cc(OC)c1OC" , thanks.
59.5 µM

CC50 lookup needed for "Cc1cc2ccccc2n1CCNC(=O)/C=C/c1ccc(OCCCO)cc1" , thanks.
36.6 µM

CC50 lookup needed for "COc1cc(/C=C/C(=O)NCCn2c(C(F)(F)F)cc3ccccc32)cc(OC)c1OCCO" , thanks.
31.2 µM

CC50 lookup needed for "Cc1[nH]c2ccccc2c1CCNC(=O)/C=C/c1ccc(OCCO)c(OCCO)c1" , thanks.
126 µM
